Entry source: patent US20250243171A1

- systemUnderTest: Ba/F3 stable cells (Homo sapiens, UniProt P00533, DUP768-770, cells depend on it)
- Construct: EC50 Ba/F3-EGFR D770-N771insSVD; other: Ba/F3-EGFR D770-N771insSVD cells, 72 h, CCK-8
- Sequence (P00533 with tags, fused parts or gaps DUP768-770): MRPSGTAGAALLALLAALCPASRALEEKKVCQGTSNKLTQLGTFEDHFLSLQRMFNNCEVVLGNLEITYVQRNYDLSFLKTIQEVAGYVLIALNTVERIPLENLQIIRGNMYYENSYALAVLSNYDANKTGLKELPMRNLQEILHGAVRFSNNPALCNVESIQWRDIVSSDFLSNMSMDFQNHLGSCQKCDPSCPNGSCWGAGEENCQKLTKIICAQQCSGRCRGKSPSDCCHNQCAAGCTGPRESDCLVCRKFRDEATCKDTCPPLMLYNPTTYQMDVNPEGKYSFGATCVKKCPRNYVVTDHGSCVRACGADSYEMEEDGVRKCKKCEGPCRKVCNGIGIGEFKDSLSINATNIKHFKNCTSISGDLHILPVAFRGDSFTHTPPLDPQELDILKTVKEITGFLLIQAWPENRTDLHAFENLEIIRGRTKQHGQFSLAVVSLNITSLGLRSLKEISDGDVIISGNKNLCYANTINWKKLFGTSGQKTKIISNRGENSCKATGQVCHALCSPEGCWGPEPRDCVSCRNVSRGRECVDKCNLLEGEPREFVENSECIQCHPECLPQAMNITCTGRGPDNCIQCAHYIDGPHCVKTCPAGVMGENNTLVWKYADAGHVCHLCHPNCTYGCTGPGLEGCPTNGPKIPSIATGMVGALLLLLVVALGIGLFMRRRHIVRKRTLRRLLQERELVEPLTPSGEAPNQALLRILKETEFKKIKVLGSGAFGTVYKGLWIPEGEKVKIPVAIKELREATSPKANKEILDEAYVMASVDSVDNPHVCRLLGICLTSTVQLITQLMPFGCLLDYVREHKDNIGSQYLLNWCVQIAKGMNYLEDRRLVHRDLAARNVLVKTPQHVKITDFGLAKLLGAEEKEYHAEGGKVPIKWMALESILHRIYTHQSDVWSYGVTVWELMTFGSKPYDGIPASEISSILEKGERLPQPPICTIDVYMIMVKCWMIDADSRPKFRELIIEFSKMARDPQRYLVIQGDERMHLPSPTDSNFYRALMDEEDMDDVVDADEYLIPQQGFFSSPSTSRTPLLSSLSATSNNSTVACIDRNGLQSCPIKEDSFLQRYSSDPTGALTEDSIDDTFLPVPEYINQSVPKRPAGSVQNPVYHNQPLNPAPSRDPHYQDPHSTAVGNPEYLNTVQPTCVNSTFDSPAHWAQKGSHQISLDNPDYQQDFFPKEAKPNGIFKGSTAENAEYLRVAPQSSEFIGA
- assaySummary: EC50 assay: Ba/F3 stable cell proliferation (CCK-8, 72 h)
- conditionContext: Ba/F3-EGFR D770-N771insSVD cells
Exercise: for every item that follows, state its recorded EC50.

Query: # EC50 lookup, item C=CC(=O)N1CCC(Oc2cc3c(NCc4ccc(F)cc4)ncnc3cc2OC)CC1
Reply: 200 to 1000 nM

Query: # EC50 lookup, item C#CC(=O)N1CCC=C(c2ccc3ncnc(Nc4ccc(Cl)c(Cl)c4F)c3c2)C1
Reply: 200 to 1000 nM

Query: # EC50 lookup, item C#CC(=O)N[C@H]1C[C@@H](Oc2cc3c(Nc4cccc5c4CCC5)ncnc3cc2OC)C1
Reply: > 1000 nM

Query: # EC50 lookup, item C=CC(=O)N1CC(c2cc3c(Nc4ccc(Cl)c(Cl)c4F)ncnc3cc2OCCCN2CCOCC2)C1
Reply: ≤ 200 nM
